Target: serotonin transporter (Rattus norvegicus, UniProt P31652)
Construct: displace ^3H-paroxetine from male rat frontal cortical membranes; from tissue; host or cells: male rat frontal cortex membranes
Sequence (P31652 whole entry): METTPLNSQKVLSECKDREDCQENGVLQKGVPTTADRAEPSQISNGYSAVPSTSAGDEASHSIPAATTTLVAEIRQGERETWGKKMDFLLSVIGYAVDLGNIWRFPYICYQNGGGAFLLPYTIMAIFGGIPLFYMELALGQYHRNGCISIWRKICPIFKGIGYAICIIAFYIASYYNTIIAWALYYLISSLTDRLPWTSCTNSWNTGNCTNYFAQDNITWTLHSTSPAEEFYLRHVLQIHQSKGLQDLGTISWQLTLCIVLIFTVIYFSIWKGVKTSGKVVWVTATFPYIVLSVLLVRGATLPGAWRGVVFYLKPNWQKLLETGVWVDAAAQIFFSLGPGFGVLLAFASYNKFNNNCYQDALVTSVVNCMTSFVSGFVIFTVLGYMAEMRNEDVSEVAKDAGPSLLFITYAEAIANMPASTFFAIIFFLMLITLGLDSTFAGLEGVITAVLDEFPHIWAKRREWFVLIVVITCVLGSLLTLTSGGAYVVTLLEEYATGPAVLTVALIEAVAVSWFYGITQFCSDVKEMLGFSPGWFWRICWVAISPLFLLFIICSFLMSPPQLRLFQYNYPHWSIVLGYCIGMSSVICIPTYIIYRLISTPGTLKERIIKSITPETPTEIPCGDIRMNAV
Test: Displacement of 3H-paroxetine from male rat frontal cortical membranes (serotonin transporter affinity)
Format: binding
Details: 3H-paroxetine displacement, read-out: 5-HT Transporter Affinity Ki
Where a name gives a salt, the structure may show the parent alone.
quantity: log10 Ki (log10 of the value in nM)
Would you kindly interpret these values as log10 of Ki expressed in nM?

log10 Ki reported for this compound Cc1ccc2c3c(ccc2n1)OC[C@H](CN1CCC(Oc2ccc4c(c2)NC(=O)CC4)CC1)O3 [Example 17, dihydrochloride salt] : 1.58

For Cc1ccc2c3c(ccc2n1)OC[C@H](CN1CCCC(Cc2ccc4c(c2)NC(=O)CO4)C1)O3 (some centres unmarked) [Example 16, dihydrochloride salt] the compound record lists log10 Ki as 0.70

// recorded log10 Ki for Cc1ccc2c3c(ccc2n1)OC[C@H](CNCCCCOc1ccc2c(c1)NC(=O)CO2)O3 [Example 6, dihydrochloride salt] : 1.08

According to the records, this compound Cc1ccc2c3c(ccc2n1)OC[C@H](CN1CCC(Cc2ccc4c(c2)N(C)C(=O)CO4)CC1)O3 [Example 12, dihydrochloride salt] displays log10 Ki of 0.82

Note to self: log10 Ki recorded for Cc1ccc2c3c(ccc2n1)OC[C@H](CN1CCC(Cc2ccc4c(c2)NC(=O)CO4)CC1)O3 [Example 2, dihydrochloride] was 0.95

The measured log10 Ki associated with Cc1ccc2c3c(ccc2n1)OC[C@H](CN1CCC(CCc2ccc4c(c2)NC(=O)CO4)CC1)O3 [Example 14, dihydrochloride salt] reads 0.42

// log10 Ki value for Cc1ccc2c3c(ccc2n1)OC[C@H](CN1CC[C@@H](Oc2ccc4c(c2)NC(=O)CO4)C1)O3 [Example 9, dihydrochloride salt] : 0.65

The compound CNCCCCOc1ccc2c(c1)NC(=O)CO2 [Example 10, hydrochloride salt] showed log10 Ki equal to 1.77

Per the records, this compound ( Cc1ccc2c3c(ccc2n1)OC[C@H](CN1CCCC(Cc2ccc4c(c2)N(C)C(=O)CO4)C1)O3 (some centres unmarked) [Example 15, dihydrochloride salt] ) has log10 Ki equal to 1.91

Entry under test: Cc1ccc2c3c(ccc2n1)OC[C@H](CNC1CCN(c2ccc4c(c2)NC(=O)CO4)CC1)O3 [Example 18, dihydrochloride salt] . Its log10 Ki was 1.55

Lab note: Cc1ccc2c3c(ccc2n1)OC[C@H](CN1CCC(Oc2ccc4c(c2)N(C)C(=O)CO4)CC1)O3 [Example 5, dihydrochloride salt] gave log10 Ki of 1.04

The value of log10 Ki measured for the compound Cc1ccc2c3c(ccc2n1)OC[C@H](CN1CCC(CCc2ccc4c(c2)N(C)C(=O)CO4)CC1)O3 [Example 13, dihydrochloride salt] turned out to be 1.14

The compound Cc1ccc2c3c(ccc2n1)OC[C@H](CN1CCC(Oc2ccc4c(c2)NC(=O)CO4)CC1)O3 [Example 1, dihydrochloride salt] showed log10 Ki equal to 0.98

Please fill in: log10 Ki reported for Cc1ccc2c3c(ccc2n1)OC[C@H](CN1CC[C@H](Oc2ccc4c(c2)NC(=O)CO4)C1)O3 [Example 8, dihydrochloride salt] = 1.26

====

Where a name gives a salt, the structure may show the parent alone.
Assay system human 5HT1A receptors (Homo sapiens, UniProt P08908); read-out recorded as Ki.
// return numeric value only (unit: nM, not printed)

compound | assayTarget | recordedValue
Cc1ccc2c3c(ccc2n1)OC[C@H](CNCCCCOc1ccc2c(c1)NC(=O)CO2)O3 [Example 6, dihydrochloride salt] | human 5HT1A receptors (Homo sapiens, UniProt P08908) | 0.25
Cc1ccc2c3c(ccc2n1)OC[C@H](CN1CC[C@@H](Oc2ccc4c(c2)NC(=O)CO4)C1)O3 [Example 9, dihydrochloride salt] | human 5HT1A receptors (Homo sapiens, UniProt P08908) | 3.53

Form field Ki for item Cc1ccc2c3c(ccc2n1)OC[C@H](CNCCCOc1ccc2c(c1)NC(=O)CO2)O3 [Example 7, dihydrochloride salt] on human 5HT1A receptors (Homo sapiens, UniProt P08908): 0.1

====

Target sequence: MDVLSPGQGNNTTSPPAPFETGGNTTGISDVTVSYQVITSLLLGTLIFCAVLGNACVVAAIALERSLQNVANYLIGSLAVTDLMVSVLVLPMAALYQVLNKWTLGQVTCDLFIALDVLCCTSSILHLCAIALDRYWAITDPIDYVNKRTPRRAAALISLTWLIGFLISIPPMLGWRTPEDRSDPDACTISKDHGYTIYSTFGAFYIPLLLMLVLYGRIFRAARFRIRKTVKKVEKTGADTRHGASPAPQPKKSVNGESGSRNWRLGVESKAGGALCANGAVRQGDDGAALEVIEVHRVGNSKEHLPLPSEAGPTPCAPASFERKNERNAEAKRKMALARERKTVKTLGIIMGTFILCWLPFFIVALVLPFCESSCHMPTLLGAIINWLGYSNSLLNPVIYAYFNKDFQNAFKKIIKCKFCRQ
Counter-ions that a name gives are not always drawn.
quantity: IC50
Give me the value, and tack the unit on after it.

Consider Cc1ccc2c3c(ccc2n1)OC[C@H](CN1CCC(Oc2ccc4c(c2)NC(=O)CO4)CC1)O3 [Example 1, dihydrochloride salt] . Its measured IC50 is 59.3 nM

====

Measured pKi values are reported for all entries that follow.
Biological target: UniProt P08908
Sequence (P08908 1-422): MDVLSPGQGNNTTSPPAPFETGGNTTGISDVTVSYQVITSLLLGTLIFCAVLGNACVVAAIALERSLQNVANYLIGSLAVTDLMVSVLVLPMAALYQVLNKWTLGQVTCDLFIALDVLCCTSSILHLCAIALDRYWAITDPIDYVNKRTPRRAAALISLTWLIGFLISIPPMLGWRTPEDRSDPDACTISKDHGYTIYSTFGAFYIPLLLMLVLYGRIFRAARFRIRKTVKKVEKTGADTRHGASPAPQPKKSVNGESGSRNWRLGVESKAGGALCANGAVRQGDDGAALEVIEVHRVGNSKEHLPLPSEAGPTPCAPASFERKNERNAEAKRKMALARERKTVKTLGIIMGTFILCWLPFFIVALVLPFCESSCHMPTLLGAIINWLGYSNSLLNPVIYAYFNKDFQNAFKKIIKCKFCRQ
Note on units: pKi is unitless, being -log10 of a concentration expressed in mol/L.

A selection of reference data follows.
compound | pKi
Cc1ccc2c3c(ccc2n1)OC[C@H](CN1C2CCC1CC(Cc1ccc4c(c1)NC(=O)CC4)C2)O3 (stereo partly shown) | 8.62
Cc1ccc2c3c(ccc2n1)OC[C@H](CN1CCC[C@H](Oc2ccc4c(c2)NC(=O)CO4)C1)O3 | 6.44
Cc1ccc2c3c(ccc2n1)OC[C@H](CN1CCC[C@@H](Oc2ccc4c(c2)NC(=O)CO4)C1)O3 | 7.86

Kindly review the next compound as well.
The compound listed as Cc1ccc2c3c(ccc2n1)OC[C@H](CN1CCC(Cc2ccc4c(c2)NC(=O)CC4)CC1)O3 shows pKi equal to 8.94

====

Biological target: Human Serotonin Transporter (h5HT-T) (Homo sapiens, UniProt P31645)
Sequence (P31645 whole entry): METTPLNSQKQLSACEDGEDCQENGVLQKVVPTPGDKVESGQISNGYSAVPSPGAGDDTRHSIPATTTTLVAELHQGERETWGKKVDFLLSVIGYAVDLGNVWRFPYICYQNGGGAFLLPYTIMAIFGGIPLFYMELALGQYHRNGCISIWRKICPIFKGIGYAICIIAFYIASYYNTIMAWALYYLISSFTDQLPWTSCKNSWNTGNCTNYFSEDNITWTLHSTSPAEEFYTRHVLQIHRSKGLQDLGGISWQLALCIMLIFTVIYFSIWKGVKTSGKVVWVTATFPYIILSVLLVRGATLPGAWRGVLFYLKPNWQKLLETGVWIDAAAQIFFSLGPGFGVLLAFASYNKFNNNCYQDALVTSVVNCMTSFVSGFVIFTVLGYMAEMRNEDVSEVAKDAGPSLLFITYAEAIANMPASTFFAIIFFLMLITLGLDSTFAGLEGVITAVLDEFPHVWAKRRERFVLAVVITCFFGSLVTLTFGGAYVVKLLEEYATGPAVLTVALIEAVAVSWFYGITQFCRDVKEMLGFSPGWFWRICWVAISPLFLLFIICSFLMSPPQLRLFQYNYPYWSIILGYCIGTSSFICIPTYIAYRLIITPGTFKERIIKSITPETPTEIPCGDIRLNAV
Experiment: biochemical
pKi listing for selected compounds.
As a rule, pKi stands for the negative log10 of the concentration, concentration in M.

compound | pKi
Cc1ccc2c3c(ccc2n1)OC[C@H](CN1CCC[C@H](Oc2ccc4c(c2)NC(=O)CO4)C1)O3 | 6.42

Looking up Cc1ccc2c3c(ccc2n1)OC[C@H](CN1C2CCC1CC(Cc1ccc4c(c1)NC(=O)CC4)C2)O3 (some centres unmarked) , I found its pKi recorded as 7.91

According to the records, this compound Cc1ccc2c3c(ccc2n1)OC[C@H](CN1CCCC(Cc2ccc4c(c2)NC(=O)CC4)C1)O3 (some centres unmarked) displays pKi of 8.01

pKi reading for Cc1ccc2c3c(ccc2n1)OC[C@H](CN1CCC(Cc2ccc4c(c2)NC(=O)CC4)CC1)O3 : 8.23

For this compound ( Cc1ccc2c3c(ccc2n1)OC[C@H](CN1CCC[C@@H](Oc2ccc4c(c2)NC(=O)CO4)C1)O3 ), measured pKi is 6.83

====

Counter-ions that a name gives are not always drawn.
Reported values of melting point for individual entries

molecule | recordedValue
Cc1ccc2c3c(ccc2n1)OC[C@H](CN1CCC(Oc2ccc4c(c2)NC(=O)CO4)CC1)O3 (as salt: hydrochloride) [Example 1, dihydrochloride salt] | 216 to 219 °C (dec.)
Cc1ccc2c3c(ccc2n1)OC[C@H](CNC1CCN(c2ccc4c(c2)NC(=O)CO4)CC1)O3 (as salt: hydrochloride) [Example 18, dihydrochloride salt] | 240 °C (dec.)
Cc1ccc2c3c(ccc2n1)OC[C@H](CN1CC[C@@H](Oc2ccc4c(c2)NC(=O)CO4)C1)O3 (as salt: hydrochloride) [Example 9, dihydrochloride salt] | 183 °C (dec.)
Cc1ccc2c3c(ccc2n1)OC[C@H](CN1CCCC(Cc2ccc4c(c2)N(C)C(=O)CO4)C1)O3 (stereo partly drawn) (as salt: hydrochloride) [Example 15, dihydrochloride salt] | 249 to 251 °C
Cc1ccc2c3c(ccc2n1)OC[C@H](CN1CC[C@H](Oc2ccc4c(c2)NC(=O)CO4)C1)O3 (as salt: hydrochloride) [Example 8, dihydrochloride salt] | 183 °C (dec.)

Consider Cc1ccc2c3c(ccc2n1)OC[C@H](CNCCCCOc1ccc2c(c1)NC(=O)CO2)O3 (as salt: hydrochloride) [Example 6, dihydrochloride salt] . Its measured melting point is 143 °C (dec.)

For reference, reported melting point for Cc1ccc2c3c(ccc2n1)OC[C@H](CN1CCC(Oc2ccc4c(c2)N(C)C(=O)CO4)CC1)O3 (as salt: hydrochloride) [Example 5, dihydrochloride salt] stands at 164 °C (dec.)

The origin of these recorded values is patent US20090042874A1.
